- MEASURED ON: 5-hydroxytryptamine receptor 1A (Homo sapiens, UniProt P08908)
- Sequence (P08908 whole entry): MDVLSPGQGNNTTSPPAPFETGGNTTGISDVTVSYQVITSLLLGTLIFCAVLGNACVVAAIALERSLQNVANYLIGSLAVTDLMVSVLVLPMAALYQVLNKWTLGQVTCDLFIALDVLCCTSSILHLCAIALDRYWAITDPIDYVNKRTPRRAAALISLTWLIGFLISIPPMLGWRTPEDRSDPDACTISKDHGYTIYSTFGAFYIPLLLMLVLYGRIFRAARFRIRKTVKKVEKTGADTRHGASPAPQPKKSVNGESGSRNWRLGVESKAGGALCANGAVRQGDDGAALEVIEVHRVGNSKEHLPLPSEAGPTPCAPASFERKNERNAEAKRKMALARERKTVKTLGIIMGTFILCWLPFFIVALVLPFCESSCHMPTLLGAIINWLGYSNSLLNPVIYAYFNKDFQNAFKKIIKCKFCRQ
Threshold 500 nM. Ki below it: Fulfilled. Ki at it or above: Not fulfilled.

Prompt: Strictly below 500 nM in Ki? Fc1ccc(SCCCN2CCN(c3ccc(Cl)cc3)CC2)cc1
Response: Fulfilled

Prompt: Strictly below 500 nM in Ki? Fc1ccc(OCCCN2CCN(c3ccccc3)CC2)cc1
Response: Fulfilled

Prompt: Strictly below 500 nM in Ki? [O-][S+](CCCN1CCC(c2ccc(Cl)cc2)CC1)c1ccc(F)cc1 (centres undefined)
Response: Not fulfilled

Prompt: Strictly below 500 nM in Ki? Fc1ccc(CCCCN2CCN(c3ccc(Cl)cc3)CC2)cc1
Response: Fulfilled

Prompt: Strictly below 500 nM in Ki? Clc1ccc(N2CCN(CCCOc3ccccc3)CC2)cc1
Response: Fulfilled
